Species: Rattus norvegicus
Assay: Reversal of CPA inhibition of isoproterenol-stimulated rat atria
Format: functional, organism-based
Conditions: Cardiac atrium
PARAMETER: EC50 (nM)
Give the value in nM but do not write nM after it.

query: Annotate the compound CCCn1c(=O)c2[nH]c([C@]34CC[C@](CCC(=O)O)(CC3)CC4)nc2n(CCC)c1=O with its measured EC50.
result: 16.1

----------
Test: Half life in Beagle dog at 1 mg/kg, po
Type: ADME, organism-based, Canis lupus familiaris
Parameters: dose 1 mg/kg, route oral
Conditions: in vivo
PARAMETER: half-life
Provide a numeric answer, followed by its unit.

query: Hello, please tell me recorded half-life for this one: CCCn1c(=O)c2[nH]c([C@]34CC[C@](CCC(=O)O)(CC3)CC4)nc2n(CCC)c1=O
result: 6.4 h

----------
Assay: Solubility in 5% dextrose in water
Assay type: physicochemical
PARAMETER: solubility (mg/mL)
Use mg/mL as the unit, but write only the number.

molecular_string=CCCn1c(=O)c2[nH]c([C@H]3CC4C[C@@H]3[C@H]3O[C@@H]43)nc2n(CCC)c1=O units_label=mg/mL value_reported=0.25

query: Supply recorded solubility for CCCn1c(=O)c2[nH]c([C@]34CC[C@](CCC(=O)O)(CC3)CC4)nc2n(CCC)c1=O here.
result: 12.4

query: Quote solubility reported for CCCn1c(=O)c2nc([C@]34CC[C@](C(=O)O)(CC3)CC4)[nH]c2n(CCC)c1=O please.
result: 63

----------
Target: UniProtKB P0DMS8
Sequence (P0DMS8 whole entry): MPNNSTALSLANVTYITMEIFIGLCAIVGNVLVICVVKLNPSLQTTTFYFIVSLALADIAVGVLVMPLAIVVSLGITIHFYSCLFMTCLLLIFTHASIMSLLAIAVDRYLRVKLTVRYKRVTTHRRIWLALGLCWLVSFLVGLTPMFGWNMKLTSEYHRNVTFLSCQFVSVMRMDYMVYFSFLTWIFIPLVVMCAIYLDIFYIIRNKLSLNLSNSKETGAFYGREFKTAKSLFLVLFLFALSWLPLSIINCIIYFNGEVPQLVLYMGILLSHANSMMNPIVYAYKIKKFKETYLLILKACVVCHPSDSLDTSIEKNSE
Assay: Displacement of [125I]ABA from human adenosine A3 receptor expressed in HEK cells relative to control
Assay type: cell-based
Parameters: concentration or dose not given beside the values
Conditions: HEK293
PARAMETER: Activity (%)
Respond numerically; units are % and should not be typed.

molecular_string=CCCn1c(=O)c2nc([C@]34CC[C@](C(=O)NCC(=O)O)(CC3)CC4)[nH]c2n(CCC)c1=O units_label=% value_reported=70
molecular_string=CCCn1c(=O)c2nc([C@]34CC[C@](C(=O)NCCN(C)C)(CC3)CC4)[nH]c2n(CCC)c1=O units_label=% value_reported=79
molecular_string=CCCn1c(=O)c2nc([C@H]3CC[C@H](C(=O)N(CC)CC)CC3)[nH]c2n(CCC)c1=O units_label=% value_reported=100
molecular_string=CCCn1c(=O)c2nc([C@]34CC[C@](CCCC(=O)O)(CC3)CC4)[nH]c2n(CCC)c1=O units_label=% value_reported=26
molecular_string=CCCCC[C@]12CC[C@](c3nc4c(=O)n(CCC)c(=O)n(CCC)c4[nH]3)(CC1)CC2 units_label=% value_reported=100
molecular_string=CCCn1c(=O)c2nc([C@H]3CC[C@H](C(=O)NCCN(C)C)CC3)[nH]c2n(CCC)c1=O units_label=% value_reported=91

query: # return recorded Activity for entry CCCn1c(=O)c2nc([C@]34CC[C@](C(=O)OC)(CC3)CC4)[nH]c2n(CCC)c1=O
result: 44

query: Recall and state the measured Activity for CCCn1c(=O)c2nc([C@]34CC[C@](CO)(CC3)CC4)[nH]c2n(CCC)c1=O .
result: 73

----------
Experiment: Half life in Sprague-Dawley rat at 1 mg/kg, po
Assay type: ADME, organism-based
Design: dose 1 mg/kg, route oral
Conditions: in vivo
PARAMETER: half-life
Your reply should be a number followed by the unit it is expressed in.

molecular_string=CCCn1c(=O)c2[nH]c([C@]34CC[C@](CCC(=O)O)(CC3)CC4)nc2n(CCC)c1=O value_reported="188 min"

Now for another entry.
query: Supply reported half-life belonging to this compound: CCCn1c(=O)c2nc([C@]34CC[C@](CCCC(=O)O)(CC3)CC4)[nH]c2n(CCC)c1=O
result: 122 min
